Hey, just so you know, these numbers are from BindingDB's records for PubMed 11602678.

Protein target, amino acids: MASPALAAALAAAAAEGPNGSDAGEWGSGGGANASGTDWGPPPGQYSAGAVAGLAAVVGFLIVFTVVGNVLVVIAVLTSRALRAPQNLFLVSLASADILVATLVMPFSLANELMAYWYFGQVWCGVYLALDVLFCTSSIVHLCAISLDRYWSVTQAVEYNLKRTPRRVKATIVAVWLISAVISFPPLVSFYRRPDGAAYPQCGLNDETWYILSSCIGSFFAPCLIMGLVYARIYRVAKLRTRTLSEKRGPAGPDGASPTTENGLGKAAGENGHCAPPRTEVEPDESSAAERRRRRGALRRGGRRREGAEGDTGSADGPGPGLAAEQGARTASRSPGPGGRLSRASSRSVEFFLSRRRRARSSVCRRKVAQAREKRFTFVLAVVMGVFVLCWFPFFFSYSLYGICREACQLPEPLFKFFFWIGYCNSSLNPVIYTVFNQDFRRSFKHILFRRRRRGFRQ
attribute.measured: Ki (nM)

CCC(=O)Nc1c(C)cc(C(=O)N2CCC(N(C)CCc3ccccc3)CC2)cc1C [NSC_219019] = 13.7
